# Species on record: Rattus norvegicus
# measurement.protocol: Open TG-GATES - Regimen: Daily Repeat
# Assay type: toxicity, organism-based, Sprague-Dawley
# Parameters: regimen Daily Repeat, gender Male, age 6 weeks
# measurement.conditions: in vivo, po, 0 mg/kg, 72 h, tissue Plasma, route gavage, dose level Control, time 3 day
metric.name: TP (g/dL)
Express the result in g/dL but write the number alone.

The following compounds have reported results that may help.
[
  {
    "compound": "COc1ccc2[nH]c([S+]([O-])Cc3ncc(C)c(OC)c3C)nc2c1 (stereo not drawn)",
    "TP (g/dL)": 5.6
  },
  {
    "compound": "CCOC(=O)CCC(=O)O[C@H]1[C@H](O[C@@H]2[C@@H](C)[C@H](O[C@H]3C[C@@](C)(OC)[C@@H](O)[C@H](C)O3)[C@@H](C)C(=O)O[C@H](CC)[C@@](C)(O)[C@H](O)[C@@H](C)C(=O)[C@H](C)C[C@@]2(C)O)O[C@H](C)C[C@@H]1N(C)C [ERYTHROMYCIN ETHYLSUCCINATE]",
    "TP (g/dL)": 5.4
  },
  {
    "compound": "NNC(=O)c1ccncc1",
    "TP (g/dL)": 6
  }
]

Report measured TP; entry is `COC1=CC(=O)C[C@@H](C)[C@]12Oc1c(Cl)c(OC)cc(OC)c1C2=O` 5.3

Report measured TP; entry is CCOc1ccc(NC(=O)CC(C)O)cc1 (stereo not drawn) 5.9

Report measured TP; entry is `NC(N)=Nc1nc(CSCCC(N)=NS(N)(=O)=O)cs1` 5.5

Report measured TP; entry is `CN(C)CCCN1c2ccccc2CCc2ccccc21` 5.7

Report measured TP; entry is `CC1=C(/C=C/C(C)=C/C=C/C(C)=C/CO)C(C)(C)CCC1` 5.5
